Assay protocol: RPMI8226 myeloma cell viability, profiling panel, resazurin fluorescence, basal, 24 h, PK04 Diversity Set (AID 1180);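 note: RPMI8826 multiple myeloma cell line at 5000 cells per well; test concentration not given here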
Measurement conditions: higher = more signal
We begin with a simple list: items and their reported z-score.
Experimental endpoint: z-score

Compound	Numeric value
C[C@H](ON=C1[C@H]2CCn3c(=O)n(-c4ccccc4)c(=O)n3[C@H]2[C@H](O)[C@@H]2O[C@H]12)c1cn([C@H](CO)Cc2ccccc2)nn1	-0.226
COC(=O)CC=C[C@H](C)[C@@H](OCc1cccc(Br)c1)[C@@H](C)[C@H](OC)C1CCCCC1	-0.171
CCOC(=O)[C@H](Cc1ccccc1)NC(=O)CCC1CC(OC(=O)NCCc2ccc(F)cc2)CC2(CCCC(COC(=O)NCCc3ccccc3OC)O2)O1 (stereo partly specified)	0.0228
COC(=O)[C@@H]1CC[C@H](C)[C@@H](c2ccc(C)cc2)N1C(=O)c1ccc(C=NO[C@@H]2O[C@H](COC(C)=O)[C@@H](OC(C)=O)[C@H](OC(C)=O)[C@H]2OC(C)=O)cc1	0.369
CC1O[C@H]2C3=C(C(=O)[C@@H]4O[C@@H]4[C@H]3O)[C@@H]1C1[C@@H](C)OC=C3[C@H](O)C4O[C@@H]4C(=NOCc4ccccc4)[C@]312 (stereo partly specified)	-2.84
CC(C)=CCCC(C)=CCON=C1C[C@@H](O)[C@@H](O)[C@@H]2[C@@H]3C(=O)N(C[C@@H]4CCCO4)C(=O)[C@@H]3CC[C@H]12	-0.251

----------
Assay protocol: MM1S myeloma cell viability, profiling panel, resazurin fluorescence, basal, 24 h, PK04 Diversity Set (AID 1174);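 note: MM1S multiple myeloma cell line; test concentration not given here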
Measurement conditions: higher = more signal, called active from +8 up or from −8 down
Experimental endpoint: z-score

>>> print(df.to_string())
                                   compound  numeric_value
0  CO[C@H]1COC(=O)CC=C[C@@H](C)[C@H](NS(=O)(=O)c2ccc(C)cc2)COC(=O)CCC[C@@H]1C           1.01
1  COc1ccc(O[C@H]2C=C[C@@H](c3ccccc3)O[C@@H]2CON=C(C)CCC(=O)OC[C@H]2O[C@H](c3ccccc3)C=C[C@@H]2Oc2ccc(OC)cc2)cc1          0.427
2  COC(=O)CC=C[C@@H](C)[C@@H](C=NO[C@H](C)c1cn([C@@H]2COC[C@H]2O)nn1)NS(=O)(=O)c1ccc(C)cc1          -1.34
3  COC(=O)[C@@H]1CC[C@H](C)[C@@H](c2ccc(C)cc2)N1C(=O)c1ccc(C=NO[C@@H](C)c2cn([C@H](CO)Cc3ccccc3)nn2)cc1          -1.93
4  Cc1ccc(S(=O)(=O)N[C@@H]2COC(=O)[C@@H](C)COC(=O)CC=C[C@H]2C)cc1          0.258
5  CCC1=NOC(CCC2CC(OC(=O)NCc3cccc4c3OCO4)CC3(CCCC(COC(=O)NCCc4ccccc4OC)O3)O2)C1 (configuration not stated)         0.0125
6  COC(=O)[C@@H]1CC[C@H](C)[C@@H](c2ccc(C)cc2)N1C(=O)c1ccc(C=NOC[C@@H](C)[C@H](OCc2ccccc2)C(C)C)cc1         -0.795

----------
Assay protocol: modulators of HCV replicon luciferase signal, primary screen, HCV replication inhibitor project, Huh7 cells, luciferase reporter (AID 1109);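 note: huh7 hepatoma cells harbouring a luciferase neomycin HCV replicon reporter; luciferase luminescence as measure of HCV replicon replication; test concentration not given here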
Measurement conditions: 48 h, higher = more signal
Overview of recorded z-score for various compounds

Compound	z-score
CCOC(=O)NN=C1C[C@@H](O)[C@@H](O)[C@@H]2[C@@H]3C(=O)N(c4cccc(Oc5ccccc5)c4)C(=O)[C@@H]3CC[C@@H]12	-0.912
CC(C)(C)N1C(=O)[C@H]2[C@H]3[C@H](O)[C@H](O)CC(=O)[C@H]3CC[C@H]2C1=O	-0.041
COCCNC(=O)OCC1CCCC2(CC(OC(=O)NCc3ccc4c(c3)OCO4)CC(CCC(=O)N[C@@H](C)C(=O)OC)O2)O1 (some centres not stated)	-1.26
CC(C)C[C@H](NC(=O)CCC1CC(OC(=O)NCc2cccc3ccccc23)CC2(CCCC(COC(=O)NCc3ccccc3)O2)O1)C(=O)NCC(c1ccccc1)c1ccccc1 (some centres not stated)	-1.27
CC(C)=CCCC(C)=CCON=C1C[C@@H](O)[C@@H](O)[C@@H]2[C@@H]3C(=O)N(C[C@@H]4CCCO4)C(=O)[C@@H]3CC[C@H]12	-0.0626
CC(C)=CCCC(C)=CCON=C1C[C@@H](O)[C@@H](O)[C@@H]2[C@@H]3C(=O)N(C4CCCCC4)C(=O)[C@@H]3CC[C@@H]12	-0.471
O=c1n(Cc2cc3c(cc2Cl)OCO3)c(=O)n2n1CC[C@@H]1C(=NOCc3ccccc3)[C@H]3O[C@H]3[C@@H](O)[C@@H]12	0.51

----------
Assay protocol: P. aeruginosa biofilm formation inhibitors, primary screen, strain PAO1, LB-PBS medium, absorbance 600 nm (AID 1176); note: test concentration not given here
Measurement conditions: P. aeruginosa PAO1 growth/biofilm, A600, 12 h; higher = more signal
Short version: z-score at least 0.2 is yes, less is no.

In [3]: df
Out[3]:
                                    compound  class
 0  CCOC(=O)NN=C1C[C@@H](O)[C@@H](O)[C@@H]2[C@@H]3C(=O)N(c4cccc(Oc5ccccc5)c4)C(=O)[C@@H]3CC[C@H]12    yes
 1  CC(C)CON=C1C[C@@H](O)[C@@H](O)[C@@H]2[C@@H]3C(=O)N(C[C@@H]4CCCO4)C(=O)[C@@H]3CC[C@@H]12     no
 2  CO[C@@H]1COC(=O)[C@H](CCSC)NC(=O)CC=C[C@@H](C)COC(=O)CCC[C@H]1C     no
 3  CCN1C(=O)[C@H]2[C@H]3[C@H](O)[C@H](O)CC(=NOCC(C)C)[C@@H]3CC[C@H]2C1=O    yes
 4        O=C(C=Cc1ccc2c(c1)OCO2)c1ccc(F)cc1     no
 5  CO[C@@H]1COC(=O)CC=C[C@@H](C)[C@H](OC)COC(=O)[C@@H](C)COC(=O)CC=C[C@H]1C     no
 6  COC(=O)CC=C[C@@H](C)[C@@H](C=NO[C@H](C)c1cn([C@@H]2COC[C@H]2O)nn1)NS(=O)(=O)c1ccc(C)cc1    yes
 7  COC(=O)CC=C[C@@H](C)[C@H](OCc1cccc(-c2ccccc2)c1)C1CCCCC1     no
 8  CC(C)=NOC[C@@H](C)[C@H](OCc1ccccc1)C(C)C     no
 9  C=CC[C@@H]1C=C[C@H](ON=C(C)CCC(=O)OC[C@H]2O[C@H](c3ccccc3)C=C[C@@H]2Oc2ccc(OC)cc2)[C@@H](CO)O1    yes
10  C[C@@H](c1ccccc1)N1C(=O)[C@H]2[C@H]3[C@H](O)[C@H](O)CC(=O)[C@H]3CC[C@H]2C1=O     no
11  C=C(C)C(=O)OCC1CN2[C@@H](CC[C@@H](C)[C@@H]2c2ccc(Br)cc2)C(=O)O1 (some centres not stated)     no
12  CO[C@@H]1C=CCC(=O)N2CCC[C@H]2C(=O)OC[C@@H](C)C(=O)OC[C@H]1C    yes
13  CCOC(=O)[C@H](CC(C)C)NC(=O)CCC1CC(OC(=O)NCc2ccc3c(c2)OCO3)CC2(CCCC(COC(=O)NCC3CCCCC3)O2)O1 (some centres not stated)     no
14  O=C1CCCC=C1C(O)CCOC(c1ccccc1)(c1ccccc1)c1ccccc1 (configuration not stated)    yes
15  Cc1ccc(S(=O)(=O)n2c3ccccc3c3nnc(C(=O)c4ccccc4)nc32)cc1    yes
16  CC(C)CCN1CCc2nc(COc3ccccc3)c3c(c2C1)CO[C@@H](C)C3    yes
17  CCOC(=O)[C@H](CC(C)C)NC(=O)CCC1CC(OC(=O)NCCc2ccc(F)cc2)CC2(CCCC(COC(=O)NCCc3ccc(Cl)cc3)O2)O1 (some centres not stated)    yes
18  Cc1ccc(S(=O)(=O)N[C@H]2COC(=O)CC=C[C@H](C)[C@@H](NS(=O)(=O)c3ccc(C)cc3)COC(=O)CC=C[C@@H]2C)cc1     no
19  CO[C@H]1COC(=O)CC=C[C@H](C)COC(=O)[C@@H](C)NC(=O)CC=C[C@@H]1C     no
20  O=C(NN=C1C[C@@H](O)[C@@H](O)[C@@H]2[C@@H]3C(=O)N(C4CCCCC4)C(=O)[C@@H]3CC[C@H]12)OCc1ccccc1    yes
21  CCN1C(=O)[C@H]2[C@H]3[C@H](O)[C@H](O)CC(=NOC[C@H]4O[C@H](c5ccccc5)C=C[C@@H]4Oc4ccc(OC)cc4)[C@@H]3CC[C@H]2C1=O    yes
22  COC(=O)CC=C[C@H](C)[C@@H](OCc1cccc(Br)c1)[C@@H](C)[C@H](OC)C1CCCCC1     no
23  O=C1C[C@@H](O)[C@@H](O)[C@@H]2[C@@H]3C(=O)N(C[C@@H]4CCCO4)C(=O)[C@@H]3CC[C@@H]12    yes
24  CO[C@@H]1COC(=O)CC=C[C@H](C)[C@H](OC)COC(=O)[C@H](C)NC(=O)CC=C[C@H]1C     no
25  CCCCC#C[C@@H]1C=C[C@H](OC(C)=O)[C@@H](COC(C)=O)O1    yes
26  CO[C@@H]1COC(=O)[C@@H](C)COC(=O)[C@@H](C)NC(=O)CC=C[C@@H]1C     no
27  CC(C)CON=C1C[C@@H](O)[C@@H](O)[C@@H]2[C@@H]3C(=O)N(Cc4ccc5c(c4)OCO5)C(=O)[C@@H]3CC[C@H]12     no
28  CCN1C(=O)[C@@H]2[C@H]3C(=CC[C@@H]2C1=O)C1(OCCCO1)[C@H]1O[C@H]1[C@H]3O    yes
29  CC[C@@H](c1ccccc1)n1c(=O)n2n(c1=O)[C@H]1[C@H](O)[C@@H]3O[C@@H]3C(=O)[C@H]1CC2     no
30  COC(=O)[C@H](C)NC(=O)CCC1CC(OC(=O)NCc2cccc3ccccc23)CC2(CCCC(COC(=O)NCC(c3ccccc3)c3ccccc3)O2)O1 (some centres not stated)     no
